These measurements were taken from the supplement of paper PMC10567573.

Experiment: protein stability index of a GFP-peptide fusion (GPS, HEK-293T) (PSI 1-6); higher = more stable;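 further: 24-mer peptide tiles fused after GFP, lentivirally expressed, FACS-sorted into six equal bins by GFP/DsRed ratio, decoded by Illumina sequencing, PSI is the read-weighted mean bin number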
Details: treatment: DMSO; c terminus: a fixed tail appended
Some sequences, each annotated with its measured protein stability index.

MONOMER_SEQUENCE	protein stability index
TMGMGMPNIAMTSGTVQPKQDAFA [CLINT1]	3.9
EPGTPSSSPDDKLLTSPRAINNLV [KLHL14]	4.87
RTADEATNTGPAGSSASTSPAPLD [DYRK1B]	5.5
KAMLQLHERGLKLHQTIYNQACKL [INTS4]	2.23
SIEVGGSVNFDGETIEGAPPLWAA [FEM1C]	3.92
TRKHYQVTGYGINGTGDSNDFWRI [POMT2]	2.34
TQIEDATEKLKANAESSKTWLKGK [TRIM14]	4.95
